// values below are reported cell viability
System: ML-2
experiment.summary: cell viability (% survival relative to DMSO control, bortezomib = 0%); higher = less cytotoxic
settings: 1 nM; 72 h
Write the number in % without appending the unit.

Consider the worked cases shown below.
compound	target	cell viability, %
O=P(O)(O)C(O)(Cn1ccnc1)P(=O)(O)O [Zoledronic acid]	ML-2	80.5
COc1c(C)c2c(c(O)c1C/C=C(\C)CCC(=O)O)C(=O)OC2 [Mycophenolic acid]	ML-2	116
NC(=O)c1ncn([C@@H]2O[C@H](CO)[C@@H](O)[C@H]2O)n1 [Ribavirin]	ML-2	95.4

Now take the following compound into account.
What does the data say about its cell viability? Entry: Cl.OC[C@H]1NC[C@@H](O)[C@@H](O)[C@@H]1O [1-Deoxymannojirimycin hydrochloride]
101
